Where do these numbers come from? They come from ChEMBL document CHEMBL2218924.

Molecular target: Calcium/calmodulin-dependent protein kinase type II subunit gamma (Homo sapiens) (UniProt Q13555)
Sequence (Q13555 whole entry): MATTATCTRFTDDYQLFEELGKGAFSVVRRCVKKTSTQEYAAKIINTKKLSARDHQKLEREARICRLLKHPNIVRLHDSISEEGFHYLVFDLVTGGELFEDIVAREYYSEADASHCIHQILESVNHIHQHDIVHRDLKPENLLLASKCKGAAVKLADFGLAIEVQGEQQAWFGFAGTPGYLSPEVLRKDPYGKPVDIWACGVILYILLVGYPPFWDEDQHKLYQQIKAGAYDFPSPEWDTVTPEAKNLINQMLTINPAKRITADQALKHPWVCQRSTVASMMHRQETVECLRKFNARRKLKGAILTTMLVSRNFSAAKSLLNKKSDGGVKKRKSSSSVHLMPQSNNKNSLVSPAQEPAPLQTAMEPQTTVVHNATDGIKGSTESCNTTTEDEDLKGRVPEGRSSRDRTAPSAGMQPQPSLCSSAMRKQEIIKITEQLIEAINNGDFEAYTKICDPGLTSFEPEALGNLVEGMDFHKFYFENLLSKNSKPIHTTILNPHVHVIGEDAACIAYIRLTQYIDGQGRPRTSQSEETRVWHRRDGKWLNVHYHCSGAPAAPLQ
Conditions: at 1 µM
endpoint: residual activity (%)

structure_notation=Ic1cccc(CSc2nnc(-c3ccncc3)o2)c1 value_reported=85
structure_notation=COc1ccc(OC)c2c(=S)c3ccccc3[nH]c12 value_reported=90
structure_notation=NC(=O)c1ccc2[nH]c(-c3ccc(Oc4ccc(Cl)cc4)cc3)nc2c1 value_reported=92
structure_notation=CC(=O)c1ccc(N2CCOCC2)cc1O value_reported=103
structure_notation=CC[n+]1c(/C=C/N(C)c2ccccc2)n(-c2ccccc2)c2ccc(-c3nc4ccccc4s3)cc21 value_reported=113
structure_notation=c1ccc(-c2n[nH]c3c2oc2ccccc23)cc1 value_reported=81
structure_notation=COc1ccc(CNc2nc(N(CCO)CCO)nc3c2ncn3C(C)C)cc1 value_reported=99
structure_notation=O=Nc1c(-c2c(O)[nH]c3ccccc23)[nH]c2ccccc12 value_reported=12
structure_notation=Cn1cc(/C=C2\C(=O)Nc3ccc(S(N)(=O)=O)cc32)c2ccccc21 value_reported=23
structure_notation=C[C@@H](N)[C@H]1CC[C@H](C(=O)Nc2ccncc2)CC1 value_reported=100
structure_notation=Oc1ccc(Nc2nc(-c3ccc(Cl)cc3)cs2)cc1 value_reported=98

----------
Target: Myotonin-protein kinase (Homo sapiens) (UniProt Q09013)
Sequence (whole entry): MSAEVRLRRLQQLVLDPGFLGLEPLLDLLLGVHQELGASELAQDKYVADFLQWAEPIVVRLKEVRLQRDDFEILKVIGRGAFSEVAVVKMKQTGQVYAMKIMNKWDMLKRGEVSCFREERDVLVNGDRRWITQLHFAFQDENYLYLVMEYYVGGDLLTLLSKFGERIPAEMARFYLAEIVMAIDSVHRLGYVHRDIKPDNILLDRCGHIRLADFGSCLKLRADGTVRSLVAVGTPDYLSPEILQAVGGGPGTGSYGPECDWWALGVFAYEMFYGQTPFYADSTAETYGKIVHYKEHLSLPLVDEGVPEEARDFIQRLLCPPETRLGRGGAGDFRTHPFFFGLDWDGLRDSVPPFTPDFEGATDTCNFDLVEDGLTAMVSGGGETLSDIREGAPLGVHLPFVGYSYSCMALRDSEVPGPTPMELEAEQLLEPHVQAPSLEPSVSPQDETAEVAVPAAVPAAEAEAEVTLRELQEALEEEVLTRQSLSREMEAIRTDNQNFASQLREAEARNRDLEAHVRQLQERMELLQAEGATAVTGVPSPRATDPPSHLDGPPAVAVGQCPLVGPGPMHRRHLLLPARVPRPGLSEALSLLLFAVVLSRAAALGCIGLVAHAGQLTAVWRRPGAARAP
Details: at 10 µM
endpoint: residual activity (%)

compound=Oc1ccc(Nc2nc(-c3ccc(Cl)cc3)cs2)cc1 target_or_system="Myotonin-protein kinase (Homo sapiens) (UniProt Q09013)" value_reported=98
compound=CN(C)c1ccc(/C=C2\C(=O)Nc3ccccc32)cc1 target_or_system="Myotonin-protein kinase (Homo sapiens) (UniProt Q09013)" value_reported=130
compound=COc1cc2ncnc(Nc3ccc(NC(=O)c4ccccc4)cc3)c2cc1OC target_or_system="Myotonin-protein kinase (Homo sapiens) (UniProt Q09013)" value_reported=145
compound="O=C1Nc2ccccc2/C1=C1/Nc2ccccc2/C1=N\\OCCC(O)CO (stereo unspecified)" target_or_system="Myotonin-protein kinase (Homo sapiens) (UniProt Q09013)" value_reported=69
compound=O=C(Nc1cccc(Nc2nccc(Nc3cccc(C(F)(F)F)c3)n2)c1)C1CC1 target_or_system="Myotonin-protein kinase (Homo sapiens) (UniProt Q09013)" value_reported=125
compound=Ic1cccc(CSc2nnc(-c3ccncc3)o2)c1 target_or_system="Myotonin-protein kinase (Homo sapiens) (UniProt Q09013)" value_reported=81
compound=CCN(CC)CCCCN1c2ccccc2Oc2ccc(Cl)cc21 target_or_system="Myotonin-protein kinase (Homo sapiens) (UniProt Q09013)" value_reported=136
compound=Cn1cc(/C=C2\C(=O)Nc3ccc(S(N)(=O)=O)cc32)c2ccccc21 target_or_system="Myotonin-protein kinase (Homo sapiens) (UniProt Q09013)" value_reported=120
compound=Nc1nc(Nc2ccc(S(N)(=O)=O)cc2)nn1C(=S)Nc1c(F)cccc1F target_or_system="Myotonin-protein kinase (Homo sapiens) (UniProt Q09013)" value_reported=31
compound=Cc1nc2cc3nc(-c4cccs4)cnc3cc2n1C target_or_system="Myotonin-protein kinase (Homo sapiens) (UniProt Q09013)" value_reported=117
compound=N#CC(C#N)=C(N)/C(C#N)=C/c1ccc(O)cc1 target_or_system="Myotonin-protein kinase (Homo sapiens) (UniProt Q09013)" value_reported=148
compound=COc1ccc(S(=O)(=O)N(CCO)c2ccccc2CN(C)C/C=C/c2ccc(Cl)cc2)cc1 target_or_system="Myotonin-protein kinase (Homo sapiens) (UniProt Q09013)" value_reported=89
compound=Cc1nc(-c2ccccc2)c(-c2ccncc2)o1 target_or_system="Myotonin-protein kinase (Homo sapiens) (UniProt Q09013)" value_reported=102
compound=c1ccc(-c2n[nH]cc2-c2ccnc3ccccc23)nc1 target_or_system="Myotonin-protein kinase (Homo sapiens) (UniProt Q09013)" value_reported=140
compound=Cn1nc2c3c(cccc31)C(=O)c1ccccc1-2 target_or_system="Myotonin-protein kinase (Homo sapiens) (UniProt Q09013)" value_reported=84
compound=c1ccc2c(-c3ccncc3)c[nH]c2c1 target_or_system="Myotonin-protein kinase (Homo sapiens) (UniProt Q09013)" value_reported=132
